System: Human immunodeficiency virus 1
Experimental Details: MMV: HIV CXCR4-tropic env NL4-3 pseudovirus assay produces luciferase signal in lieu of replicating viral particles Day 3 pi, U87-CD4-CXCR4, % inhibition at 5 mM compound
Format: functional
Design: dose or concentration left out as unconfirmed
Reported Conditions: Human immunodeficiency virus 1, NL4-3, U87.CD4.CXCR4, 72 h
Value Type: inhibition (%)
Kindly answer with a numeric value in %, unit omitted.

Some compounds with recorded inhibition:
CCCCCC(=O)N1c2ccccc2N=C2CC(c3ccc(OC)c(OC)c3)CC(O)=C2C1c1ccc(C(F)(F)F)cc1 (stereo not drawn) | 2
Cc1cc(Nc2ccc(Cl)cc2)n2nc(C(F)(F)F)nc2n1 | 2

Let me know recorded inhibition for CCC(C)NCC(O)(c1ccc(Cl)cc1)c1ccc(Cl)cc1 (stereo not drawn) , thanks.
2

* * *

The reader will find reported % Cell Death values listed item by item below.
Experimental Details: MMV: MTT Cytotoxicity Assay Day 7 pi of Assay #7 (compound washed out Day 1 pi), U87-CD4-CXCR4 cells, % cell death @ 5mM compound
Assay type: toxicity, cell-based
Reported Conditions: human, u87-cd4-cxcr4, 5000 µM

CCOc1cccc2sc(N(Cc3cccnc3)C(=O)C3CCCCC3)nc12 | 8

Give the reported % Cell Death for this compound. Cc1ccc(Cn2c(N3CCC(C(=O)NCc4cccs4)CC3)nc3ccccc32)cc1
58

Specify % Cell Death for COc1ccc2c(c1)C1(Nc3ccccc3-c3nc4ccccc4n31)C(=O)N2 (stereo not drawn) and stop.
-24

* * *

Experimental Details: MMV: MTT Cytotoxicity Assay Day 3 pi, U87-CD4-CXCR4 cells, % cell death @ 5mM compound
Format: toxicity, cell-based
Reported Conditions: human, u87-cd4-cxcr4, 5000 µM
Value Type: % Cell Death
Give a plain numeric answer without units written out.

Would you please look over these solved cases?
COc1ccc2c(=O)cc(C(Cl)(Cl)Cl)oc2c1 | 41
Cc1cc(NC(=O)c2ccc(-c3ccccc3)cc2)no1 | 43
COc1ccc(C2c3ccc4ccccc4c3Oc3ncn(CCCn4ccnc4)c(=N)c32)cc1OC (stereo not drawn) | 38
FC(F)(F)c1cccc(CNC2CCN(CCc3ccccc3)CC2)c1 | 31
O=C(NC1CCCC1)c1ccc(N2CCC(NCc3cccc(C(F)(F)F)c3)CC2)cc1 | 35
CCN(CC)CCn1c(=N)n(CC(O)c2ccc(Cl)c(Cl)c2)c2ccccc21.Cl (stereo not drawn) | 4
COc1ccc(CCNC(=O)c2cc(S(=O)(=O)N3CC(C)CC(C)C3)ccc2Sc2ccc(F)cc2)cc1OC (stereo not drawn) | 39
COc1ccc(CCN2CCC(CN(C)Cc3cnn(-c4ccccc4)c3)CC2)cc1 | 53
CC(C)(C)C(=O)Nc1ccc(C(=O)Nc2cccc(-c3nc4ccccc4[nH]3)c2)cc1 | 20
CCOc1cc2c(cc1OCC)C(c1cc(C)c(O)c(C)c1)NCC2.Cl (stereo not drawn) | 16

Supply reported % Cell Death belonging to this molecule: COc1ccc(CCn2c(=N)c(C(=O)NCc3cccnc3)cc3c(=O)n4cccc(C)c4nc32)cc1
15

Give me measured % Cell Death, please, for this molecule: COc1ccc2nc(N)nc(C)c2c1
34

Please give the documented % Cell Death of c1ccc(Cn2c(N=Nc3c(Nc4ccccc4)ccc4ccccc34)nc3ccccc32)cc1
97

Tell me % Cell Death reported for N=c1n(CCN2CCCCC2)c2ccccc2n1CC(=O)c1ccc(Cl)c(Cl)c1
9

Specify % Cell Death for COc1ccc2sc(N(Cc3cccnc3)C(=O)c3ccc(C#N)cc3)nc2c1 and stop.
29

Please give measured % Cell Death of the following entry: COc1ccccc1CNC(=O)C1c2ccccc2C(=O)N(CC(C)C)C1c1cccs1 (stereo not drawn)
23

* * *

Experimental Details: MMV: MTT Cytotoxicity Assay Day 7 pi of Assay #6 (compound washed out Day 1 pi), U87-CD4-CCR5 cells, % cell death @ 5mM compound
Type: toxicity, cell-based
Reported Conditions: human, u87-cd4-ccr5, 5000 µM
Value Type: % Cell Death
No unit in the answer, please; the number alone is enough.

As a guide, the following entries are already answered.
COc1ccccc1CNC(=O)CCn1c(=O)[nH]c2ccsc2c1=O | -12
Cc1ccc(-c2cc3nc4c(c(O)n3n2)CCCC4)cc1 | 24
COCCNCC(O)Cn1c2ccc(Cl)cc2c2cc(Cl)ccc21 (centres undefined) | 14
CCCc1c(C)nc2ccc(Br)cc2c1O | -7
Cc1cc(N(C)C)nc(Nc2ccc(NC(=O)Nc3ccccc3)cc2)n1 | -5
CCCCNCC(O)(c1ccc(Cl)cc1)c1ccc(Cl)cc1 | 23

Using the record for O=c1cc(NC2CCN(CCCc3ccccc3)CC2)c2cc(Cl)ccc2o1 , state its measured % Cell Death.
-6

State, in one line, measured % Cell Death of O=C(CSc1ccc2nnc(-c3cccc(F)c3)n2n1)Nc1ccc2c(c1)OCO2
63

Return reported % Cell Death. Input molecule: Oc1ccc(-c2nc(-c3ccc4oc5ccc(-c6[nH]c(-c7ccc(O)cc7)nc6-c6ccccc6)cc5c4c3)c(-c3ccccc3)[nH]2)cc1
-12

* * *

Experimental Details: MMV: MTT Cytotoxicity Assay Day 7 pi of Assay #11 (NO washout), U87-CD4-CXCR4 cells, % cell death @ 5mM compound
Type: toxicity, cell-based
Reported Conditions: human, u87-cd4-cxcr4, 5000 µM
Recorded % Cell Death, one value per entry.
I only need the number, thanks.

Cc1sc(NC(=O)c2ccco2)c(C(c2cccnc2)N2CCC(Cc3ccccc3)CC2)c1C (stereo not given) | 104
O=C(NCCCN1CCC(N2CCCCC2)CC1)C1=Cc2cc(Br)ccc2OC1 | -57
Cc1ccc2nc(C)cc(Nc3cccc(C(F)(F)F)c3)c2c1.Cl | 44
O=C(Nc1ccc(N2CCCCC2)c(Cl)c1)c1ccc(Br)o1 | 99
O=C(Nc1ccc(CN2CCOCC2)cc1)c1ccc(-c2ccc(Br)cc2)o1 | 6
CCCCCCOC(=O)C1=C(C)NC(=O)NC1c1ccccc1F (stereo not given) | -34

Attention now shifts to the item below.
Name the recorded % Cell Death of the item CCCCc1c(C)nc2c(OC)cccc2c1O in your answer.
46

* * *

In this section, each of the molecules is paired with its reported % Cell Death.
Experimental Details: MMV: MTT Cytotoxicity Assay Day 7 pi of Assay #6 (compound washed out Day 1 pi), U87-CD4-CCR5 cells, % cell death @ 5mM compound
Type: toxicity, cell-based
Reported Conditions: human, u87-cd4-ccr5, 5000 µM
Form rule: numeric answer, no unit written next to it.

Worked examples follow.
CCN(CC)CCCNc1ccnc2cc3ccccc3cc12 | 51
Cc1cc(=O)oc2c1ccc1oc(C(=O)c3ccccc3)c(C)c12 | 4
OCCNc1nc(Nc2ccc(Cl)c(Cl)c2)nc2ccccc12 | -18
CCCN(CCC)CC(O)COc1ccccc1C(=O)Nc1ccccc1 (stereo not drawn) | -14
COc1ccc(CN2CCCC(C(=O)c3ccc(C(F)(F)F)cc3)C2)c(O)c1 (stereo not drawn) | 104
CC(C)CNC(=O)c1c(N)n(CCc2ccccc2F)c2nc3ccccc3nc12 | 4
CCOC(=O)c1cn(CC)c2cc(N(C)CCc3ccc(OC)c(OC)c3)c(F)cc2c1=O | -4

Give % Cell Death for O=C(CCc1ccco1)NC1CCN(CC2(c3ccc(Cl)cc3)CCC2)CC1
2

* * *

Experimental Details: MMV: MTT Cytotoxicity Assay Day 7 pi of Assay #10 (NO washout), U87-CD4-CCR5 cells, % cell death @ 5mM compound
Assay type: toxicity, cell-based
Reported Conditions: human, u87-cd4-ccr5, 5000 µM
Mark Not satisfied for % Cell Death values under 20, and Satisfied for everything at or above.

Example results:
CCOc1ccc(CCNC(=O)c2cccs2)cc1OCC | Not satisfied
Cc1cc(C)c2nc(N3CCC(C(=O)NCCCN4CCC(N5CCCCC5)CC4)CC3)sc2c1 | Not satisfied
CCOC(=O)c1cn(CC)c2cc(N3CCCCC3)c(F)cc2c1=O | Satisfied
COCCNC(=O)c1ccc(OC2CCN(Cc3ccc(F)c(F)c3)CC2)c(Cl)c1 | Not satisfied
Cn1c(C(=O)c2cccc3ccccc23)nc2ccccc21 | Not satisfied
Cc1ccccc1OCCSc1nc2ccc(NC(=O)c3ccccc3)cc2s1 | Satisfied

Now, please, on to the next compound.
Hello, I need to know if CCN(CC)CCNc1ncnc2c1[nH]c1ccc(Br)cc12 has measured % Cell Death not below 20. Thanks!
Not satisfied

* * *

% Cell Death: recorded values
Experimental Details: MMV: MTT Cytotoxicity Assay Day 3 pi, U87-CD4-CCR5 cells, % cell death @ 5mM compound
Type: toxicity, cell-based
Reported Conditions: human, u87-cd4-ccr5, 5000 µM
Respond numerically, and do not add a unit to the figure.

Worked examples follow.
CCOC(=O)c1c(NC(=O)c2ccccc2)sc2c(O)c(CN(CC)CC)ccc12 | -7
Cc1cc(NC(=O)c2ccc(-c3ccccc3)cc2)no1 | -16
Cc1cc(C=C2SC(=Nc3ccccc3)N(C3CCCC3)C2=O)c(C)n1-c1ccc(Cl)cc1 | 96

// fetch % Cell Death given entry CCCCc1c(C)nc2c(OC)cccc2c1O
0

Give the reported value of % Cell Death for this record: c1ccc(Cn2c(N=Nc3c(Nc4ccccc4)ccc4ccccc34)nc3ccccc32)cc1
92

Give recorded % Cell Death. CC(C)CNC(=O)c1c(N)n(CCc2ccccc2F)c2nc3ccccc3nc12
0

Give the reported % Cell Death for this compound. COc1cccc(NC(=O)[C@H](C(C)C)n2c(=O)[nH]c3ccccc3c2=O)c1
24

Indicate its recorded % Cell Death; the compound in question is CCOc1ccccc1CN1CCc2nc3cc(C(C)(C)C)nn3c(O)c2C1
100

Consider the compound CCCN(CCC)CC(O)COc1ccccc1C(=O)Nc1ccccc1 (stereo unspecified) and give its recorded % Cell Death.
33

Identify measured % Cell Death associated with CCOc1ccc(-n2cc(-c3ccccc3)c3c(SCc4cc(C)ccc4C)ncnc32)cc1
3

Quote % Cell Death reported for Cc1cc(NCCN2CCCCC2)c2ccc3ccccc3c2n1 please.
64
